Recorded values, source patent US7754919B2.

property label: melting point

I'd like to know its melting point. The molecule in question is CCN1CCCC1CNC(=O)c1ccc(NC(=O)Cc2ccc(Br)c(Oc3cc(Cl)cc(C#N)c3)c2F)c(Cl)c1 (stereo not shown) 212 °C

I'd like to know its melting point. The molecule in question is CC1CC[C@@H](C)N1CCNC(=O)c1ccc(NC(=O)Cc2ccc(Br)c(Oc3cc(Cl)cc(C#N)c3)c2F)c(Cl)c1 (stereo partly shown) 179 to 181 °C

I'd like to know its melting point. The molecule in question is N#Cc1cc(Cl)cc(Oc2c(Br)ccc(CC(=O)Nc3ccc(C(=O)NC4CCS(=O)(=O)C4)cc3Cl)c2F)c1 (stereo not shown) 236.6 °C

I'd like to know its melting point. The molecule in question is Cc1cc(C(=O)NCCN)ccc1NC(=O)Cc1ccc(Cl)c(Oc2cc(Cl)cc(C#N)c2)c1F 207.6 to 208.6 °C

I'd like to know its melting point. The molecule in question is Cc1cc(C(=O)NCCN2CCC(O)CC2)ccc1NC(=O)Cc1ccc(Br)c(Oc2cc(Cl)cc(C#N)c2)c1F 219.6 to 221.6 °C

I'd like to know its melting point. The molecule in question is Cc1cc(C(=O)NCCN2CCCC2)ccc1NC(=O)Cc1ccc(Br)c(Oc2cc(C#N)cc(C(F)F)c2)c1F 202.4 to 203.7 °C

I'd like to know its melting point. The molecule in question is Cc1cc(C(=O)NCCN(C)C)ccc1NC(=O)Cc1ccc(Br)c(Oc2cc(C#N)cc(C(F)F)c2)c1F 205.6 to 206.6 °C

I'd like to know its melting point. The molecule in question is CC(CO)(CO)NC(=O)c1ccc(NC(=O)Cc2ccc(Br)c(Oc3cc(Cl)cc(C#N)c3)c2F)c(Cl)c1 69.1 °C

I'd like to know its melting point. The molecule in question is CN1CCC(C)(NC(=O)c2ccc(NC(=O)Cc3ccc(Br)c(Oc4cc(Cl)cc(C#N)c4)c3F)c(Cl)c2)CC1 96 °C

I'd like to know its melting point. The molecule in question is N#Cc1cc(Cl)cc(Oc2c(Br)ccc(CC(=O)Nc3ccc(C(=O)NCCN(CCO)CCO)cc3Cl)c2F)c1 100.1 °C

I'd like to know its melting point. The molecule in question is CC1(NC(=O)c2ccc(NC(=O)Cc3ccc(Br)c(Oc4cc(Cl)cc(C#N)c4)c3F)c(Cl)c2)CCNCC1.O=C(O)C(F)(F)F 130.5 °C

I'd like to know its melting point. The molecule in question is Cc1cc(C(=O)NC(C)CN(C)C)ccc1NC(=O)Cc1ccc(Br)c(Oc2cc(Cl)cc(C#N)c2)c1F (stereo not shown) 222 to 223.2 °C

I'd like to know its melting point. The molecule in question is N#Cc1cc(Cl)cc(Oc2c(Br)ccc(CC(=O)Nc3ccc(C(=O)N[C@@H]4CS(=O)(=O)C[C@H]4O)cc3Cl)c2F)c1 245 °C

I'd like to know its melting point. The molecule in question is Cc1cc(C(=O)NC[C@@H](C)O)ccc1NC(=O)Cc1ccc(Cl)c(Oc2cc(Cl)cc(C#N)c2)c1F 249 to 249.4 °C

I'd like to know its melting point. The molecule in question is Cc1cc(C(=O)O)ccc1NC(=O)Cc1ccc(Cl)c(Oc2cc(Cl)cc(C#N)c2)c1F 287.1 to 289.1 °C

I'd like to know its melting point. The molecule in question is CN(C)CCNC(=O)c1ccc(NC(=O)Cc2ccc(Cl)c(Oc3cc(Cl)cc(C#N)c3)c2F)c(Cl)c1 202.8 to 203.6 °C

I'd like to know its melting point. The molecule in question is Cc1cc(C(=O)NCCN2CCS(=O)(=O)CC2)ccc1NC(=O)Cc1ccc(Br)c(Oc2cc(Cl)cc(C#N)c2)c1F 168.1 to 170.1 °C

I'd like to know its melting point. The molecule in question is N#Cc1cc(Cl)cc(Oc2c(Cl)ccc(CC(=O)Nc3ccc(C(=O)O)cc3Cl)c2F)c1 242 to 243 °C

I'd like to know its melting point. The molecule in question is Cc1cc(C(=O)NCCN2CCCC2)ccc1NC(=O)Cc1ccc(Br)c(Oc2cc(Cl)cc(C#N)c2)c1F 214.7 to 216.9 °C

I'd like to know its melting point. The molecule in question is Cc1cc(C(=O)NS(C)(=O)=O)ccc1NC(=O)Cc1ccc(Br)c(Oc2cc(Cl)cc(C#N)c2)c1F 244.9 to 246.7 °C

I'd like to know its melting point. The molecule in question is CS(=O)(=O)CCNC(=O)c1ccc(NC(=O)Cc2ccc(Br)c(Oc3cc(Cl)cc(C#N)c3)c2F)c(Cl)c1 235.5 °C

I'd like to know its melting point. The molecule in question is Cc1cc(C(=O)NC[C@@H](C)O)ccc1NC(=O)Cc1ccc(Br)c(Oc2cc(C#N)cc(C(F)F)c2)c1F 225.5 to 228.8 °C

I'd like to know its melting point. The molecule in question is Cc1cc(C(N)=O)ccc1NC(=O)Cc1ccc(Cl)c(Oc2cc(Cl)cc(C#N)c2)c1F 255.9 to 257.1 °C

I'd like to know its melting point. The molecule in question is Cc1cc(C(=O)NCCN2CCNCC2)ccc1NC(=O)Cc1ccc(Br)c(Oc2cc(Cl)cc(C#N)c2)c1F 126.5 to 127 °C

I'd like to know its melting point. The molecule in question is Cc1cc(C(=O)NCCN2CCOCC2)ccc1NC(=O)Cc1ccc(Br)c(Oc2cc(Cl)cc(C#N)c2)c1F 219.8 to 222 °C

I'd like to know its melting point. The molecule in question is N#Cc1cc(Oc2c(Br)ccc(CC(=O)Nc3ccc(C(=O)NCCN4CCCC4)cc3Cl)c2F)cc(C(F)F)c1 160 to 165.7 °C

I'd like to know its melting point. The molecule in question is Cc1cc(C(=O)NCCN(C)C)ccc1NC(=O)Cc1ccc(Cl)c(Oc2cc(Cl)cc(C#N)c2)c1F 213.3 to 216 °C

I'd like to know its melting point. The molecule in question is CC(C)(CN1CCCC1)NC(=O)c1ccc(NC(=O)Cc2ccc(Br)c(Oc3cc(Cl)cc(C#N)c3)c2F)c(Cl)c1 70 °C

I'd like to know its melting point. The molecule in question is CC(C)(CN)NC(=O)c1ccc(NC(=O)Cc2ccc(Br)c(Oc3cc(Cl)cc(C#N)c3)c2F)c(Cl)c1.Cl 158 to 160.8 °C

I'd like to know its melting point. The molecule in question is N#Cc1cc(Cl)cc(Oc2c(Br)ccc(CC(=O)Nc3ccc(C(=O)NC4(CO)CC4)cc3Cl)c2F)c1 247.7 to 250.1 °C

I'd like to know its melting point. The molecule in question is N#Cc1cc(Cl)cc(Oc2c(Br)ccc(CC(=O)Nc3ccc(C(=O)NC4(CN)CC4)cc3Cl)c2F)c1.O=C(O)C(F)(F)F 148 to 152.4 °C
